Measurement protocol: small-molecule binders of probe aLefty1, primary screen, biochemical, small-molecule microarray, 635/667 nm fluorescence (AID 1153);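 further: score merges spot fluorescence with signal-to-noise ratio from the scanned slide images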
Condition details: higher = more signal
Catalogue of composite z-score values

# Compound, Property, Result
rows = [
    ("COCCOC(=O)N1C(=O)[C@@]2(c3ccccc31)[C@H](C(=O)N1CCc3cc(OC)c(OC)cc3C1)[C@H]1C(=O)O[C@H](c3ccccc3)[C@H](c3ccccc3)N1[C@@H]2c1ccccc1OCCO", "composite z-score", 0.391),
    ("COC(=O)[C@@]1(Cc2ccccc2)[C@H]2c3cc(C(=O)N4CCCC4)n(CCN4CNCC4=O)c3C[C@H]2CN1C(=O)c1ccccc1", "composite z-score", 0.0176),
    ("COC(=O)[C@@]1(Cc2ccccc2N=[N+]=[N-])N=C(c2ccc(OCCCO)cc2)O[C@H]1c1ccccc1CN=[N+]=[N-]", "composite z-score", 0.191),
    ("O=C1O[C@H](c2ccccc2)[C@H](c2ccccc2)N2[C@H]1[C@@H](C(=O)NC[C@H](O)c1ccccc1)[C@]1(C(=O)Nc3ccc(C#CC4(O)CCCCCC4)cc31)[C@H]2c1ccc(OCCO)cc1", "composite z-score", 0.0811),
]

Ask: Note composite z-score for the compound shown: `COC(=O)[C@@]1(Cc2ccccc2CN=[N+]=[N-])N=C(c2ccc(OCCCO)cc2)O[C@H]1c1ccccc1N=[N+]=[N-]`
Reply: 0.495

Ask: Note composite z-score for the compound shown: C=CCC(OC(C)=O)[C@@H]1[C@@H](N(Cc2cccc3ccccc23)C(=O)c2ccc(C)cc2)c2cc(OCCCO)ccc2N1C(=O)c1ccc(-c2ccccc2)cc1 (stereo partly specified)
Reply: 0.0384

---

Test system: Human papillomavirus type 1a protein E7 (residues 44-93)
Measurement protocol: HPV1a E7 fragment binders on microarrays, primary screen, biochemical, small-molecule microarray, residues 44-93, 635 nm fluorescence (AID 1108);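 further: E7 fragment applied at 1 µg/mL in TBST for 1 h at 4 C; score combines spot fluorescence with its signal to noise ratio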
Condition details: small-molecule microarray binding, fluorescence 635 nm; higher = more signal
Catalogue of composite z-score values
Keep the answer to the number alone.

Worked cases, answers included:
# Compound, composite z-score
records = [
    ("CO[C@@H]1COC(=O)[C@H](C)NC(=O)CC=C[C@@H](C)[C@H](OC)COC(=O)[C@H](C)NC(=O)CC=C[C@H]1C", 0.0508),
    ("C=C(CCCC)C(=O)CC[C@@H](OC(C)=O)c1ccccc1OCCO", -1.03),
    ("C=CCC(OC(C)=O)[C@@H]1[C@@H](N(Cc2ccc(-c3cccc(C(F)(F)F)c3)o2)C(=O)Cc2ccc(F)cc2)c2cc(OCCCO)ccc2N1C(=O)c1ccc(-c2ccccc2)cc1 (stereo partly drawn)", -0.741),
    ("COc1cccc([C@H]2N[C@H](C(=O)O)CC[C@@H]2C)c1", 0.0991),
]

Ask: Please look at `O=C1c2ccccc2[C@](Cc2ccccc2I)(C(=O)O)[C@H](c2ccc(CO)cc2)N1C1CCCCC1` and tell me its recorded composite z-score on Human papillomavirus type 1a protein E7 (residues 44-93).
Reply: 1.02

Ask: Please look at `COc1cc(CO)cc(I)c1O[C@H]1C=C(C(=O)NCCO)C[C@@H](N(CC2CCCCC2)C(=O)c2cc3ccccc3oc2=O)[C@@H]1O` and tell me its recorded composite z-score on Human papillomavirus type 1a protein E7 (residues 44-93).
Reply: -0.376

Ask: Please look at `COCCOC(=O)N1C(=O)[C@@]2(c3cc(C#CC4=CCCCC4)ccc31)[C@H](C(=O)NC[C@H](O)c1ccccc1)[C@H]1C(=O)O[C@H](c3ccccc3)[C@H](c3ccccc3)N1[C@@H]2c1ccccc1OCCO` and tell me its recorded composite z-score on Human papillomavirus type 1a protein E7 (residues 44-93).
Reply: 0.453

Ask: Please look at `COc1ccc(C(=O)Nc2ccc(CN3C(=O)[C@]4(O[C@H](CCn5cc(CCO)nn5)[C@@H]([Si](C)(C)c5ccc(OC)cc5)[C@@H]4C)c4ccccc43)cc2)cc1` and tell me its recorded composite z-score on Human papillomavirus type 1a protein E7 (residues 44-93).
Reply: 1.05

Ask: Please look at `CCC#CCN(Cc1ccccc1Br)[C@H](/C=C/c1ccccc1)[C@@H](O)Cc1ccccc1` and tell me its recorded composite z-score on Human papillomavirus type 1a protein E7 (residues 44-93).
Reply: -0.0687

Ask: Please look at `COCCOC(=O)N1C(=O)[C@@]2(c3cc(C#CC4(O)CCCCCC4)ccc31)[C@H](C(=O)N1CCCCCCC1)[C@H]1C(=O)O[C@H](c3ccccc3)[C@H](c3ccccc3)N1[C@@H]2c1ccc(O)cc1` and tell me its recorded composite z-score on Human papillomavirus type 1a protein E7 (residues 44-93).
Reply: 0.554

Ask: Please look at `C#CCCCON=C1C[C@@H](O)[C@@H](O)[C@@H]2[C@@H]3C(=O)N(Cc4ccc5c(c4)OCO5)C(=O)[C@@H]3CC[C@@H]12` and tell me its recorded composite z-score on Human papillomavirus type 1a protein E7 (residues 44-93).
Reply: 0.449

Ask: Please look at `COCCOC(=O)N1C(=O)[C@@]2(c3cc(C#CCNC(N)=O)ccc31)[C@H](c1ccccc1OCCO)N1[C@H](c3ccccc3)[C@H](c3ccccc3)OC(=O)[C@H]1[C@@H]2C(=O)NC[C@H](O)c1ccccc1` and tell me its recorded composite z-score on Human papillomavirus type 1a protein E7 (residues 44-93).
Reply: 1.44

Ask: Please look at `CCC(=O)[C@]12O[C@@]3([C@@H]4C(=O)OCC[C@@H]41)N(CC)C(C)=C(C(=O)OC)[C@@H](c1ccccc1)N3C2=O` and tell me its recorded composite z-score on Human papillomavirus type 1a protein E7 (residues 44-93).
Reply: -0.933

---

Tested on: Concanavalin-A (Canavalia ensiformis)
Measurement protocol: ConA small-molecule binders, primary screen, artefact control for SMM control protein annotation, biochemical, small-molecule microarray, Alexa647 label, 635 nm (AID 1127);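 further: z combines 667 nm emission intensity with signal-to-noise across three replicate slides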
Condition details: ConA-A647 binding fluorescence, higher = more signal
Catalogue of composite z-score values

# Molecule, Result
rows = [
    ("C=CCN1C(=O)[C@@]2(Cc3ccccc3)N=C(c3ccc(OCCCO)cc3)O[C@H]2c2ccccc21", 1.15),
    ("C#CCNC(/C=C/c1ccccc1)CO (centres undefined)", 0.262),
    ("C=CCC(OC(C)=O)[C@@H]1[C@@H](N(Cc2cc3ccccc3o2)C(=O)c2ccc(C)cc2)c2cc(OCCCO)ccc2N1C(=O)c1ccc2ccccc2n1 (some centres undefined)", -0.304),
]

Now for the molecule whose composite z-score we want.
Ask: Note composite z-score for the molecule shown: `CO[C@@H]1COC(=O)CC=C[C@H](C)COC(=O)[C@H](Cc2ccccc2)NC(=O)CC=C[C@H]1C`
Reply: -0.651

---

Tested on: Torsin-1A-interacting protein 1 (Homo sapiens) (UniProt Q5JTV8)
Sequence (Q5JTV8 whole entry, looked up): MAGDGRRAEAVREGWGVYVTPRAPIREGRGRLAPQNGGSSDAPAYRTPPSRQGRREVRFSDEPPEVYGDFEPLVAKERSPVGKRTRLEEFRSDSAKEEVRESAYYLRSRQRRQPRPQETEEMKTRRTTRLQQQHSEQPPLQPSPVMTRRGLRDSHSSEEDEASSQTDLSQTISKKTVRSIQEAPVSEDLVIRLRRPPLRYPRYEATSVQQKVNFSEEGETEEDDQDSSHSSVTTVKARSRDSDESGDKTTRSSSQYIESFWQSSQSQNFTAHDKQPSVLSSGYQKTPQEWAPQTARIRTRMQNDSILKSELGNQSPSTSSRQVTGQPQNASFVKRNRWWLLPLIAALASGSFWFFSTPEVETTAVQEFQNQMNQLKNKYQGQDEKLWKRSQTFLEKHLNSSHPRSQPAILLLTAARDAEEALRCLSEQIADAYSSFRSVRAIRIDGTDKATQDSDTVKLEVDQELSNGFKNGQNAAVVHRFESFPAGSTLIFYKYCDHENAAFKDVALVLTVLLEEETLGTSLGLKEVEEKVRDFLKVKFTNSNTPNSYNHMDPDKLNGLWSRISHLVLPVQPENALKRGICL
Measurement protocol: LAP1 binders from COS7 cell lysate, primary screen, small-molecule microarray, 635/667 nm fluorescence (AID 1116)
Condition details: COS7-hLAP1 lysate binding, 635 nm fluorescence, higher = more signal
Property: composite z-score
Keep the answer to the number alone.

# Compound, composite z-score
data = [
    ("[N-]=[N+]=NCc1ccccc1C[C@@]1(C(=O)O)N=C(c2ccc(OCCCO)cc2)O[C@@H]1c1ccccc1N=[N+]=[N-]", 0.938),
    ("COCCCNC(=O)[C@@]1(Sc2ccc(C)cc2)CC(=O)N(Cc2cc(C(F)(F)F)cc(C(F)(F)F)c2)[C@@H]1c1ccc(CO)cc1I", 0.339),
    ("COc1ccc(CCNC(=O)[C@@]2(c3ccc([N+](=O)[O-])cc3)CC(=O)N(C(C)C)[C@@H]2c2ccc(CO)cc2)cc1", 0.228),
]

Now for the compound whose composite z-score we want.
Ask: Note composite z-score for the compound shown: C=CCC(OC(C)=O)[C@@H]1[C@@H](N(Cc2cccc3ccccc23)C(=O)Cc2ccc(F)cc2)c2cc(OCCCO)ccc2N1C(=O)Cc1ccc2ccccc2c1 (some centres undefined)
Reply: -0.148

---

Measurement protocol: E. coli DRC41 culture turbidity changes, primary screen, E. coli filamentation inducer project, strain DRC41, OD650, 48 h (AID 1152);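 further: E. coli MC1000 strain DRC41 lacking acrAB efflux pump and sulA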
Condition details: E. coli DRC41 (acrAB sulA), higher = more signal, called active from +8 up or from −8 down
Note to self: class = bucket of z-score, per lower (below -0.2), middle (-0.2 to below 2), upper (2 or more)

# Molecule, Class label
data = [
    ("CC(C)=C1C(=O)C(c2ccccc2)=C2CN3C(=O)N(CCc4ccccc4)C(=O)[C@]3(Cc3ccccc3)[C@H]21", "lower"),
    ("C=C(CCCC)/C(=C/C[C@@H](OC(=O)c1ccncc1)c1ccc(CO)o1)c1cnc2ccccc2c1", "middle"),
    ("CN(C)CCCC[C@@H]1NC(=O)[C@@H]2C[C@H](C(=O)O)[C@H](c3ccc(O)cc3)N2C1=O", "upper"),
]

Ask: Hi there! Could you help me figure out the category for COc1ccc(C(O)C2C=CC3C(=O)N(C)C(=O)C3N2N2CCCCC2)cc1OCc1ccccc1 (configuration not stated) please?
Reply: lower

Ask: Hi there! Could you help me figure out the category for `C=CC[C@@]1(C(=O)N2CCOCC2)N=C(c2ccc(OCCCO)cc2)O[C@@H]1c1ccccc1` please?
Reply: middle
